EXPERIMENTAL_TARGET: Excitatory amino acid transporter 3 (Homo sapiens)
PROCEDURE_DETAILS: EAAT3 transporter activation by amino acid substrates – membrane potential dye, HEK-293 overexpressing cells, dose response (AID 1794812)
CONDITION_SUMMARY: HEK-293 SLC1A1 OE, FLIPR membrane potential dye
Records with an inconclusive call do not appear.

COMPOUND_STRING: N[C@@H](CS)C(=O)O
EC50: 161 µM
